# SUBJECT_OF_TEST: T1, recombinant monkey TfR (r monkey TfR: Sino Biological Inc.) (cynomolgus monkey (Macaca fascicularis), UniProt Q5RDH6 89-760 (Pongo abelii entry))
# T1 construct: Bought product; also called r monkey TfR-ECD (Histag); cynomolgus monkey TfR; not shown: histidine tag attached to the N-terminus
# T1 chain: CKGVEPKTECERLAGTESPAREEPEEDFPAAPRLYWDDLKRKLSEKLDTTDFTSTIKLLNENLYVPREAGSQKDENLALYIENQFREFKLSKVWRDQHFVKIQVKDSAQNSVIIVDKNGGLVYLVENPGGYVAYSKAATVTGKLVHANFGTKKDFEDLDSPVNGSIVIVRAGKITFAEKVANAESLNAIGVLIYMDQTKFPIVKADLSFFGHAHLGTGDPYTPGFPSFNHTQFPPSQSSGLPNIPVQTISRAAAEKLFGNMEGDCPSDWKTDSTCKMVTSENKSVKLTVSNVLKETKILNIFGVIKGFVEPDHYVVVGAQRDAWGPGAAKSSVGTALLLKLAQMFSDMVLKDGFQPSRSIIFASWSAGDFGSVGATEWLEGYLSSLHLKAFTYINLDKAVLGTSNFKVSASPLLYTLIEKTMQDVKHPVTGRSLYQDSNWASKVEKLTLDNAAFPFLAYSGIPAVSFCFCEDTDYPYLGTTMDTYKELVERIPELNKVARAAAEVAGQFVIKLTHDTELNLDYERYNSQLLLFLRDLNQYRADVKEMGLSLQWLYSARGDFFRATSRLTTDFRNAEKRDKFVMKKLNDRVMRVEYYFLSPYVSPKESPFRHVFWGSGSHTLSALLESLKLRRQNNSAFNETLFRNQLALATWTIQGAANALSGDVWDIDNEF
# MEASUREMENT_PROTOCOL: BLI (Octet RED96), His-tagged TfR ECD loaded on Ni-NTA sensor, antibody as analyte
pKd: −log10 of the molar value.
Reported pKd values for a set of binders

BINDER	VALUE_QUALIFIER	pKd
anti-hTfR antibody No. 12 (antibody, V domains shown, Mouse hybridoma antibody purified on Protein G; also called mouse anti-hTfR antibody No. 12; product of Clone 12 line) VH: EVQLQESGAELARPGTSVKVSCKAAGYVFINYLIEWVKQRPGQGLEWIGVIHSGSGGTNYNDNFKDKATLTRDVSSSTAYMQLSSLTSDDSAVYFCARRNFGNYYFDYWGQGTTLTVSS VL: DIVLTQSHKFMSTVIGDRVSITCKASHDVKTAVAWYQQTPGQSPKLLTYWSSTRHTGVPDRFTGSGSGTDYTLTISSVQAEDLALYYCQQHFSTPLTFGAGTKLELK	=	9.60
anti-hTfR antibody No. 8 (antibody, V domains shown, Mouse hybridoma antibody purified on Protein G; also called mouse anti-hTfR antibody No. 8; product of Clone 8 line) VH: EVQLQESGPGLVAPSQSLSITCTVSGFSLTTYGVSWIRQPPGKGLEWLGIIWGDGSTNYRSALISRLSISKDNSKNQVFLKLNSLQTDDTATYYCAKPDDYWGQGTSVTVSS VL: DIVLTQSPAIMSASLGEEITLTCSASSSVSYMHWYQQKSGTSPKVLIYGTSNLASEVPSRFSGSGSGTFYSLTISSVEAEDAADYYCHQWSSYPWTFGGGTKLEIK	=	8.04
anti-hTfR antibody No. 13 (antibody, V domains shown, Mouse hybridoma antibody purified on Protein G; also called mouse anti-hTfR antibody No. 13; product of Clone 13 line) VH: EVQLQESGAELVRPGSSVKISCKASGYAFSIYWINWLKQRPGQGLEWIGQIYPGNGDTNYNGKFKGKATLTADKSSNTVYMRLSSLTSEDSAVYFCGRWGDDYAMDFWGQGTSVTVSS VL: DIVITQTPATLSVTPGDRVSLSCRASQSIRNYLHWYQQKSHESPRLLIKYASQSISGIPSRFSGSGSGTDFTLTINSVETEDFGMYFCQQTNSWPYTFGGGTKLEIK	=	9.91
anti-hTfR antibody No. 7 (antibody, V domains shown, Mouse hybridoma antibody purified on Protein G; also called mouse anti-hTfR antibody No. 7; product of Clone 7 line) VH: EVQLQESGGALVKPGGSLKVSCEASGITFRNYFMSWVRQTPEKRLEWVATISSAGGYTYYADSVKGRFTISRDNAGNTLYLQMSSLRSEDTAMYFCARQEVPYPYAMDYWGQGTSVIVSS VL: DIVLTQSPVIMSASLGEEITLTCSASSSVNYIHWYQQKSGTSPKVLIYQTSNLASGVPSRFSGSRSGTFYSLKISSVEAEDAADYYCHQWSSYPWTFGGGTKLEIK	=	10.77
anti-hTfR antibody No. 1 (antibody, V domains shown, Mouse hybridoma antibody purified on Protein G; also called mouse anti-hTfR antibody No. 1; product of Clone 1 line) VH: EVQLQESGGGLVQPGGSLKLSCAASGLTFSNYGMSWIRQTPDKRLELVANINTNGGSTYYPDSVKGRFTISRDNAKNTLYLQMNSLKSEDTAIYYCTNNRYDEDYWGQGTSVTVSS VL: DIVLTQSSKFMSTSVGDRVSITCKASQDVNSAVAWFQQKPGQSPKLLIYWTSTRHTGVPDRFTGSGSGTVYTLTISSVQAEDLALYYCQQHYSTPRTFGGGTKLEIKR	>	12.00
